Form field: Tmax (one value per entry).
Type: in vivo, mice (BALB/c, CB17 SCID, tumor-bearing CB17 SCID)
testContext: BALB/c, CB17-SCID, mouse, plasma and most tissues, po
Value expressed in h; do not type the unit.

**Q:** Consider the molecule shown here: "CNC(=O)c1cc(Oc2ccc(NC(=O)Nc3ccc(Cl)c(C(F)(F)F)c3)cc2)ccn1" What is its recorded Tmax?
**A:** 6

**Q:** What do you have for "CO[C@H]1C[C@@H]2CC[C@@H](C)[C@@](O)(O2)C(=O)C(=O)N2CCCC[C@H]2C(=O)O[C@H]([C@H](C)C[C@@H]2CC[C@@H](OCCO)[C@H](OC)C2)CC(=O)[C@H](C)/C=C(\C)[C@@H](O)[C@@H](OC)C(=O)[C@H](C)C[C@H](C)/C=C/C=C/C=C/1C" ?
**A:** 1

* * *

Type: in vivo, mice (BALB/c, CB17 SCID, tumor-bearing CB17 SCID)
testContext: BALB/c, mouse, adipose and skin, po, 5 mg/kg
experimentalReadout: Tmax

**Q:** Consider the compound shown here: CO[C@H]1C[C@@H]2CC[C@@H](C)[C@@](O)(O2)C(=O)C(=O)N2CCCC[C@H]2C(=O)O[C@H]([C@H](C)C[C@@H]2CC[C@@H](OCCO)[C@H](OC)C2)CC(=O)[C@H](C)/C=C(\C)[C@@H](O)[C@@H](OC)C(=O)[C@H](C)C[C@H](C)/C=C/C=C/C=C/1C [everolimus, Everolimus] What is its recorded Tmax?
**A:** ≤ 6 h

* * *

Format: in vivo, mice (BALB/c, CB17 SCID, tumor-bearing CB17 SCID)
testContext: BALB/c, CB17-SCID, mouse, GI tract, po
experimentalReadout: Tmax
# output: number + unit

**Q:** Consider the compound shown here: "CNC(=O)c1cc(Oc2ccc(NC(=O)Nc3ccc(Cl)c(C(F)(F)F)c3)cc2)ccn1" What is its recorded Tmax?
**A:** 1 h

Origin of the recorded values: paper PMC3755750
